# testedTarget: beta-catenin/TCF4 engagement (Homo sapiens)
# Construct: expressed in transfected cells; host or cells: HEK293
# Sequence (P35222 whole entry): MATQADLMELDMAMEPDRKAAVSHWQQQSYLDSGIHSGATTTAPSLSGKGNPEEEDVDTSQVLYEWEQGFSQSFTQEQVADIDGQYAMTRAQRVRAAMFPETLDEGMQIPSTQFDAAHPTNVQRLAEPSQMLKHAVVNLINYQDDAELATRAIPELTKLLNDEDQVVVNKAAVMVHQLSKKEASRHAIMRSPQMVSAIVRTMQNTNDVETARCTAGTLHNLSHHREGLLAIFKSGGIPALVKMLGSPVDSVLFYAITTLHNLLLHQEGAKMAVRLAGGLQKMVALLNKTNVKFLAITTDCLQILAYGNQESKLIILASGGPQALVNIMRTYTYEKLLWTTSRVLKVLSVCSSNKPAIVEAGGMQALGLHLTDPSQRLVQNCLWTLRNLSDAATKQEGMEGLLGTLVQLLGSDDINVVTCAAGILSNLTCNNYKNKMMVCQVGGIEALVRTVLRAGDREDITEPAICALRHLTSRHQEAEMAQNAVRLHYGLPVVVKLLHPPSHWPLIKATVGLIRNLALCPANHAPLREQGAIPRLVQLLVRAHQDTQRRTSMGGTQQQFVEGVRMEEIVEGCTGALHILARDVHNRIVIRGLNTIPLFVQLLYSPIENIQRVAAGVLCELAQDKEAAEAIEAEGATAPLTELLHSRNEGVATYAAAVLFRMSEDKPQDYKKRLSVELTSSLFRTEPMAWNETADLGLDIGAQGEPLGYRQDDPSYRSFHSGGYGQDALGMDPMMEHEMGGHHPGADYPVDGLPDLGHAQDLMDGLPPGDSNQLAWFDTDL
# measurementDescription: Nano-BRET target engagement assay (B-cat-Halo & TCF4-Luc in HEK293 cells)
# Assay type: cell-based
# protocolConditions: read-out: NanoBRET Abs IC50

molecule | outputUnit | valueOperator | IC50
CC(=O)N1CCC[C@]12CC=CCCCC1(CCCC=CCCCOC(=O)N3CC[C@@](C(=O)N[C@@H](Cc4ccsc4)C(=O)N[C@@H](Cc4csc5ccccc45)C(=O)N[C@@H](Cc4c[nH]cn4)C(N)=O)(C3)NC(=O)[C@H]([C@@H](C)O)NC(=O)[C@H](Cc3ccccc3)NC(=O)[C@H](C)NC(=O)[C@H](C)NC(=O)[C@H](CC(=O)O)NC(=O)[C@H](CC(=O)O)NC1=O)NC(=O)[C@H](CC(C)(C)C)NC(=O)[C@H](CC(=O)O)NC2=O (stereo partly drawn) [I-810] | µM | = | 18
CC(=O)N1CCC[C@]12CC=CCCCC1(CCCC=CCCCOC(=O)N3CC[C@@](C(=O)N[C@@H](Cc4ccsc4)C(=O)N[C@@H](Cc4csc5ccccc45)C(=O)N[C@@H](CCC(N)=O)C(N)=O)(C3)NC(=O)[C@H](CC(N)=O)NC(=O)[C@H](Cc3ccccc3)NC(=O)[C@H](CCCCNC(=O)CCc3cccc4ccccc34)NC(=O)[C@H](C)NC(=O)[C@H](CC(=O)O)NC(=O)[C@H](CC(=O)O)NC1=O)NC(=O)[C@H](CC(C)(C)C)NC(=O)[C@H](CC(=O)O)NC2=O (stereo partly drawn) [I-884] | µM | > | 20
CC(=O)N1CCC[C@]12CC=CCCCC1(CCCC=CCCCOC(=O)N3CC[C@@](C(=O)N[C@@H](Cc4ccccc4Cl)C(=O)N[C@@H](Cc4csc5ccccc45)C(=O)N[C@@H](CCC(N)=O)C(N)=O)(C3)NC(=O)[C@H](CO)NC(=O)[C@H](Cc3cccc(C(F)(F)F)c3)NC(=O)[C@H](C)NC(=O)[C@H](C)NC(=O)[C@H](CC(=O)O)NC(=O)[C@H](CC(=O)O)NC1=O)NC(=O)[C@H](CC1CCCCC1)NC(=O)[C@H](CC(=O)O)NC2=O (stereo partly drawn) [I-1119] | µM | = | 19.4
CC(=O)N1CCC[C@]12CC=CCCCC1(CCCC=CCCCOC(=O)N3CC[C@@](C(=O)N[C@@H](Cc4ccccc4F)C(=O)N[C@@H](Cc4csc5ccccc45)C(=O)N[C@@H](CCC(N)=O)C(N)=O)(C3)NC(=O)[C@H]([C@@H](C)O)NC(=O)[C@H](Cc3ccccc3)NC(=O)[C@H](C)NC(=O)[C@H](C)NC(=O)[C@H](CC(N)=O)NC(=O)[C@H](CC(=O)O)NC1=O)NC(=O)[C@H](CC(C)(C)C)NC(=O)[C@H](CC(=O)O)NC2=O (stereo partly drawn) [I-1022] | µM | = | 13.7
CC(=O)N1CCC[C@]12CC=CCCCC1(CCCC=CCCCOC(=O)N3CC[C@@](C(=O)N[C@@H](Cc4ccsc4)C(=O)N[C@@H](Cc4csc5ccccc45)C(=O)N[C@@H](CCC(N)=O)C(N)=O)(C3)NC(=O)[C@H](CC(C)C)NC(=O)[C@H](Cc3ccccc3)NC(=O)[C@H](C)NC(=O)[C@H](C)NC(=O)[C@H](CC(=O)O)NC(=O)[C@H](CC(=O)O)NC1=O)NC(=O)[C@H](CC(C)(C)C)NC(=O)[C@H](CC(=O)OCCSSc1ccccc1)NC2=O (stereo partly drawn) [I-1952] | µM | > | 20
CC(=O)N1CCC[C@]12CC=CCCCC1(CCCC=CCCCOC(=O)N3CC[C@@](C(=O)N[C@@H](Cc4ccccc4Cl)C(=O)N[C@@H](Cc4csc5ccccc45)C(=O)N[C@@H](CO)C(N)=O)(C3)NC(=O)[C@H]([C@@H](C)O)NC(=O)[C@H](Cc3ccccc3)NC(=O)[C@H](C)NC(=O)[C@H](C)NC(=O)[C@H](CC(=O)O)NC(=O)[C@H](CC(=O)O)NC1=O)NC(=O)[C@H](Cc1cccc3ccccc13)NC(=O)[C@H](CC(=O)O)NC2=O (stereo partly drawn) [I-1114] | µM | > | 20
CC(=O)N1CCC[C@]12CC=CCCCC1(CCCC=CCCCOC(=O)N3CC[C@@](C(=O)N[C@@H](Cc4ccccc4Cl)C(=O)N[C@@H](Cc4csc5ccccc45)C(=O)N[C@@H](C(N)=O)[C@H](C)O)(C3)NC(=O)[C@H]([C@@H](C)O)NC(=O)[C@H](Cc3ccccc3)NC(=O)[C@H](C)NC(=O)[C@H](C)NC(=O)[C@H](CC(=O)O)NC(=O)[C@H](CC(=O)O)NC1=O)NC(=O)[C@H](CC(C)(C)C)NC(=O)[C@H](CC(=O)O)NC2=O (stereo partly drawn) [I-1033] | µM | = | 8.6
CC(=O)N1CCC[C@]12CC=CCCCC1(CCCC=CCCCOC(=O)N3CC[C@@](C(=O)N[C@@H](Cc4ccccc4Cl)C(=O)N[C@@H](Cc4csc5ccccc45)C(=O)N[C@@H](CCO)C(N)=O)(C3)NC(=O)[C@H](CCO)NC(=O)[C@H](Cc3ccccc3)NC(=O)[C@H](C)NC(=O)[C@H](C)NC(=O)[C@H](CN(CC(=O)O)CC(F)(F)F)NC(=O)[C@H](CC(=O)O)NC1=O)NC(=O)[C@H](CC(C)(C)C)NC(=O)[C@H](CC(=O)O)NC2=O (stereo partly drawn) [I-993] | µM | = | 4.9
CC(=O)N1CCC[C@]12CC=CCCCC1(CCCC=CCCCOC(=O)N3CC[C@@](C(=O)N[C@@H](Cc4ccccc4)C(=O)N[C@@H](Cc4csc5ccccc45)C(=O)N[C@@H](CCC(N)=O)C(N)=O)(C3)NC(=O)[C@H](CO)NC(=O)[C@H](Cc3ccc(C(F)(F)F)cc3)NC(=O)[C@H](C)NC(=O)[C@H](C)NC(=O)[C@H](CC(=O)O)NC(=O)[C@H](CC(=O)O)NC1=O)NC(=O)[C@H](CC1CCCCC1)NC(=O)[C@H](CC(=O)O)NC2=O (stereo partly drawn) [I-1126] | µM | = | 26.8
